Data provenance is ChEMBL document CHEMBL4673219.

- System: Fibroblast growth factor receptor 1 (Homo sapiens) (UniProt P11362)
- Sequence (P11362 22-822 limits assumed): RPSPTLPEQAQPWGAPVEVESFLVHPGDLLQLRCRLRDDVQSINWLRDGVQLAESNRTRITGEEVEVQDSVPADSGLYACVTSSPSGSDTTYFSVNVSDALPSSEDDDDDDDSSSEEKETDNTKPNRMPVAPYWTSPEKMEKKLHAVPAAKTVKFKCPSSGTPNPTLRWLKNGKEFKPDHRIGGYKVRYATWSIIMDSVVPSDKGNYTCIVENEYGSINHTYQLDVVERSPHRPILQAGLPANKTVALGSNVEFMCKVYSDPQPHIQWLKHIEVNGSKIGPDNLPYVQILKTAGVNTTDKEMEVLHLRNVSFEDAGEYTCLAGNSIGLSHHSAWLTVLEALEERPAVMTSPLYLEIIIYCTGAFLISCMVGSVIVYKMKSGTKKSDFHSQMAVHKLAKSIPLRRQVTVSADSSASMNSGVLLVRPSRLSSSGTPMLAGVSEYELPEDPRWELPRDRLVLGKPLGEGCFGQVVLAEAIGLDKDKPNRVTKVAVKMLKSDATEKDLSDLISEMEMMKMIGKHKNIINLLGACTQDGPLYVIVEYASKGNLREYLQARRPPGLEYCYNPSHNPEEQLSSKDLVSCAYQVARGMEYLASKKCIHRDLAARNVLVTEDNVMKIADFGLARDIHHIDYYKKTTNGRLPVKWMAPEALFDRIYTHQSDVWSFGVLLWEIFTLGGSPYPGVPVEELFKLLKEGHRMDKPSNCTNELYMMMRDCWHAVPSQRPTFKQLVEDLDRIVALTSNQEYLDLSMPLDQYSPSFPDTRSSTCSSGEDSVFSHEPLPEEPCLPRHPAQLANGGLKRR
- Test details: Inhibition of human FGFR1 at 10 uM using myelin basic protein as substrate incubated for 40 mins in presence of [gamma33P]ATP by scintillation counting method relative to control
Property measured: inhibition (%)

[[record]]
structure = "CCCCCCCC(=O)Nc1nc2[nH]c(CN3CCN(Cc4ccccc4F)CC3)c(CN3CCN(Cc4ccccc4F)CC3)c2c(=O)[nH]1"
property_measured = "inhibition"
unit_tag = "%"
test_result = 59.8

[[record]]
structure = "CCCCCCCC(=O)Nc1nc2[nH]c(CN3CCN(Cc4ccc(F)cc4)CC3)c(CN3CCN(Cc4ccc(F)cc4)CC3)c2c(=O)[nH]1"
property_measured = "inhibition"
unit_tag = "%"
test_result = 50.5

[[record]]
structure = "CCCCCCCC(=O)Nc1nc2[nH]c(CN3CCN(Cc4ccccc4)CC3)c(CN3CCN(Cc4ccccc4)CC3)c2c(=O)[nH]1"
property_measured = "inhibition"
unit_tag = "%"
test_result = 47.1

[[record]]
structure = "Nc1nc2[nH]c(CN3CCN(c4cc(Cl)cc(Cl)c4)CC3)c(CN3CCN(c4cc(Cl)cc(Cl)c4)CC3)c2c(=O)[nH]1"
property_measured = "inhibition"
unit_tag = "%"
test_result = -8.65

[[record]]
structure = "CCCCCCCC(=O)Nc1nc2[nH]c(CN3CCN(Cc4cccc(F)c4)CC3)c(CN3CCN(Cc4cccc(F)c4)CC3)c2c(=O)[nH]1"
property_measured = "inhibition"
unit_tag = "%"
test_result = 54.5

